This collection of values is drawn from PubChem BioAssay AID488969.

Would you kindly list z-score for each of these compounds?
target: Metabotropic glutamate receptor 8 (Rattus norvegicus) (UniProt P70579); experiment: mGluR8 Gi/Go-coupled signaling modulation – cell-based, rat, thallium flux, HTS, primary screen (AID 488969); conditions: HEK293 rat mGluR8, GIRK thallium flux, FluoZin2; at 10 µM; stronger effect = higher value; submaximal glutamate (EC20) added with thallium
Sequence (P70579 whole entry, looked up): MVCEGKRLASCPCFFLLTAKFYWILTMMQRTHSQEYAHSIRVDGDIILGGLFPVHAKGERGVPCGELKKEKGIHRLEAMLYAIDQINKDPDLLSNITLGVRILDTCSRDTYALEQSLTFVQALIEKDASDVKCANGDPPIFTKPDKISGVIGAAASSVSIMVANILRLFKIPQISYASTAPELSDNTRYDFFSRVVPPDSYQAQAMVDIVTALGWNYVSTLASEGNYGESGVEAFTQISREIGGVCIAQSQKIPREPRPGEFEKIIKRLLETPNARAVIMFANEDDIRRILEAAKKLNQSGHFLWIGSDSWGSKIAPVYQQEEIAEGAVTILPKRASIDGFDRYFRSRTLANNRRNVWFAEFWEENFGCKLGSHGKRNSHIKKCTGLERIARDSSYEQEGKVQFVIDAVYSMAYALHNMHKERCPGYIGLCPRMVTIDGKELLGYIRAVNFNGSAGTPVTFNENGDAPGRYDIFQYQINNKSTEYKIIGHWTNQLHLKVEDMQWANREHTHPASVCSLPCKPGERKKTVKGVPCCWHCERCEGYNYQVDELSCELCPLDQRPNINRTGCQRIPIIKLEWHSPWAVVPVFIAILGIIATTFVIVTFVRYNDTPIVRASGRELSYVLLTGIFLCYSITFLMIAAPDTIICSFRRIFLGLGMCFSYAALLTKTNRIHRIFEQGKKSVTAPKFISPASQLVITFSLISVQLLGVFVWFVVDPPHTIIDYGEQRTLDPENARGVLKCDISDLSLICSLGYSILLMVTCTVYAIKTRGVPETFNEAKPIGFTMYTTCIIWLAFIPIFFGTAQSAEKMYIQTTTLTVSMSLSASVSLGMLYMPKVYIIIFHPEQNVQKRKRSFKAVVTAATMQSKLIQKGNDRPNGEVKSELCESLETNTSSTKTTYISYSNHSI
The full ranking holds about 110,000 compounds; the median of “z-score” is about -0.1, and the highest 2% start at about 2. The sample as a whole holds a higher share of the highest values than the screen did.
One number for each entry.

Given the compound CCN(CC)c1ccc2cc(-c3nnc(-c4ccc(Br)cc4)o3)c(=O)oc2c1 , what is its reported z-score?
-4

Same question for CCn1c(SCC(=O)Nc2cccc(C(C)=O)c2)nnc1C(C)C please.
2.28

Another compound to check: CCn1c(SCc2ccccc2Cl)nc2ccccc21
0.866

Follow-up entry: CCn1c(SCC(=O)Nc2cccc(NC(C)=O)c2)nnc1C(C)C
-0.322

Please answer likewise for CCN(CC)c1ccc2cc(C(N)=O)c(=O)oc2c1
-0.0435

Others:
Recorded z-score of CCOC(=O)CSc1nc(C)c2cc(OC)ccc2n1 , please.
6.89

====

target: Metabotropic glutamate receptor 8 (Rattus norvegicus) (UniProt P70579); assay: mGluR8 Gi/Go-coupled signaling modulation – cell-based, rat, thallium flux, HTS, primary screen (AID 488969); details: HEK293 rat mGluR8, GIRK thallium flux, FluoZin2; at 10 µM; stronger effect = higher value; submaximal glutamate (EC20) added with thallium
Whole data set: some 110,000 compounds, median “z-score” near -0.1, cut for the highest 2% near 2. This is one part of a sample in which the highest values are shown more often than they occur. The source made the active and inactive calls.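 How the source made its calls: active means z-score in the third read window above 3 or below -3; inactive means the rest.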
experimentalReadout: z-score

Requested field: z-score. Item: Nc1nnc(C(=O)c2ccccc2N)s1
4.29 (active)

Provide reported z-score for each item, in the same order as listed.
1. CC1CCc2c(C(=O)Nc3nccs3)csc2C1 (stereo not drawn)
2. O=C(CCN1C(=O)COc2ccccc21)N1CCN(c2ccccn2)CC1
3. COC(=O)c1ccc(N2C(=O)CC(SCCN)C2=O)cc1 (stereo not drawn)
4. Cc1cccc(NC(=S)NN(Cc2ccccc2)c2ccccc2)c1C
5. Cc1ccc(/C=C2/NC(=O)N(Cc3ccccc3)C2=O)s1
6. O=C(CN1C(=O)c2cccc3cccc(c23)C1=O)N1CCN(c2ccccn2)CC1

1: -0.208; 2: 0.258; 3: -0.299; 4: -0.141; 5: -0.0544; 6: 8.64 (active)

====

I'd be grateful if you could share measured z-score for these entries.
molecular target: Metabotropic glutamate receptor 8 (Rattus norvegicus) (UniProt P70579); experiment: mGluR8 Gi/Go-coupled signaling modulation – cell-based, rat, thallium flux, HTS, primary screen (AID 488969); conditions: HEK293 rat mGluR8, GIRK thallium flux, FluoZin2; at 10 µM; stronger effect = higher value; submaximal glutamate (EC20) added with thallium
In all, about 110,000 compounds were measured (“z-score”: median about -0.1, highest 2% from about 2 on). The full list was thinned out, with the highest values kept by preference.
Give bare numbers.

Please review the entries below; each comes with its answer.
Lab request: please report z-score under test system Metabotropic glutamate receptor 8 (Rattus norvegicus) (UniProt P70579) for CCCc1nc(NCC2CCCO2)c2nnn(Cc3ccccc3)c2n1 (centres undefined)
-0.932

O=C(COc1ccc(Br)cc1Cl)NC(=S)N1CCc2ccccc21 , same question.
2.28

One more compound: O=C(COc1ccc(Br)cc1Br)NC(=S)N1CCCc2ccccc21
4.66

Let us move to another entry and its z-score.
Recorded z-score for CC(C)NC(=O)NC(=O)COc1ccc(Br)cc1Br with Metabotropic glutamate receptor 8 (Rattus norvegicus) (UniProt P70579), please?
-0.136

====

target: Metabotropic glutamate receptor 8 (Rattus norvegicus) (UniProt P70579); assay: mGluR8 Gi/Go-coupled signaling modulation – cell-based, rat, thallium flux, HTS, primary screen (AID 488969); conditions: HEK293 rat mGluR8, GIRK thallium flux, FluoZin2; at 10 µM; stronger effect = higher value; submaximal glutamate (EC20) added with thallium
Over roughly 110,000 compounds, “z-score” has its median near -0.1; the highest 2% begin near 2. This is one part of a sample in which the highest values are shown more often than they occur. The source made the active and inactive calls.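 Rule for the calls: active = z-score in the third read window above 3 or below -3; inactive = the rest.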
Field: z-score. Provide a value for each of the compounds that follow.

Would you please look over these solved cases?
Item under review: C=CCn1c(SCC(=O)NCc2ccco2)nc2sc(C)c(C)c2c1=O . Reported z-score?
-0.948

Ok, now CN1C(=S)SC(/[N+]([O-])=C\c2cccs2)C1(C)C (stereo not drawn)
-0.0661

Similarly, COc1ccc(-c2cc3nc(C4CCN(C(=O)OC(C)(C)C)CC4)c(C(=O)O)cn3n2)cc1 ?
-0.691

Could you do the same for O=C1OC2(CCCCC2)OC(=O)C1=CNc1nc2ccccc2s1 , please?
8.02 (active)

What about this compound? Cc1sc2ncnc(SCc3ccco3)c2c1C
3.43 (active)

State the recorded z-score for every item in the following list.
1. Cc1sc2nc(C(C)C)nc(SCC(=O)NCc3ccco3)c2c1C
2. O=C(NC(Nc1nc2ccc([N+](=O)[O-])cc2s1)(C(F)(F)F)C(F)(F)F)c1cccnc1
3. Cc1nc(SCC(=O)NCc2ccco2)c2c(C)c(C)sc2n1
4. Oc1[nH]c2ccccc2c1N=Nc1nc2ccccc2s1
5. COc1ccc2[nH]c(C)c(CCN3C(=O)C4C5C=CC(C5)C4C3=O)c2c1 (stereo not drawn)
6. CCOc1ccccc1NC=C1C(=O)OC2(CCCCC2)OC1=O
7. CCSc1ncnc2sc(C)c(C)c12

1: 17 (active); 2: 0.978; 3: -0.0392; 4: 2.12; 5: -0.454; 6: 0.615; 7: -0.112

Quick batch: z-score for everything below.
1. O=C(NC(Nc1nc2ccc([N+](=O)[O-])cc2s1)(C(F)(F)F)C(F)(F)F)c1ccccc1
2. O=C(NNc1c2ccccc2nc2ccccc12)c1ccc(O)cc1
3. O=C(NNc1nc(-c2ccccc2)cs1)c1ccccc1
4. CCn1c(SCC(=O)NC(=O)NCc2ccco2)nc2sc(C)c(C)c2c1=O
5. CCc1nnc(NC(=O)CCc2ccc(C)o2)s1

1: 6.52 (active); 2: 2.21; 3: -1.53; 4: 3.05 (active); 5: 0.332

====

biological target: Metabotropic glutamate receptor 8 (Rattus norvegicus) (UniProt P70579); assay: mGluR8 Gi/Go-coupled signaling modulation – cell-based, rat, thallium flux, HTS, primary screen (AID 488969); settings: HEK293 rat mGluR8, GIRK thallium flux, FluoZin2; at 10 µM; stronger effect = higher value; submaximal glutamate (EC20) added with thallium
Over roughly 110,000 compounds, “z-score” has its median near -0.1; the highest 2% begin near 2. Only a selection was taken, and the highest values are over-represented in it overall.
experimentalReadout: z-score
Numbers only.

Tell me the measured z-score of CNC(=S)SCCOc1ccccc1C , please.
0.297

Look up z-score for the entries below, preserving their order.
1. Cc1ccc(-c2ccc(/C=N/NC(=S)Nc3ccccc3)o2)cc1[N+](=O)[O-]
2. O=[N+]([O-])c1ccc(/C=N/NC(=S)Nc2ccccc2F)o1
3. O=c1c(C(c2ccccc2)c2c(O)sc3ccccc3c2=O)c(O)sc2ccccc12

1. 0.442
2. 6.05
3. 7.03

====

target: Metabotropic glutamate receptor 8 (Rattus norvegicus); assay: mGluR8 Gi/Go-coupled signaling modulation – cell-based, rat, thallium flux, HTS, primary screen (AID 488969); details: HEK293 rat mGluR8, GIRK (G protein-gated inwardly rectifying potassium channel) thallium flux, FluoZin2; at 10 µM; stronger effect = higher value; submaximal glutamate (EC20) added with thallium
The full ranking holds about 110,000 compounds; the median of “z-score” is about -0.1, and the highest 2% start at about 2. The sample holds the highest values, similar compounds and a random draw of the others, so the mix is not that of the screen.
experimentalReadout: z-score
Give bare numbers.

For orientation, consider the following solved cases.
Reported z-score for Metabotropic glutamate receptor 8 (Rattus norvegicus), given CCOc1ccc2nc(N3C(=O)/C(=C/c4ccc(Cl)cc4)NC3=S)sc2c1 ?
1.05

Entry COc1ccc2nc(N3C(=O)/C(=C/c4ccccc4)NC3=S)sc2c1 please
11.9

// query: O=C(Nc1nc(-c2ccccn2)cs1)C1CC1
0.0299

Next entry: CCOC(=O)c1c(-c2ccccc2)nnn1-c1nc(OC)nc(N2CCOCC2)n1
-0.476

Provide reported z-score for each item, in the same order as listed.
1. COc1ccc(-c2nnc(Nc3nc4c(OC)cccc4s3)o2)cc1
2. COc1ccc2nc(N3C(=O)CC(Cc4ccc(Cl)cc4)C3=O)sc2c1 (stereo not drawn)
3. Cc1ccc(OCC(O)Cn2c(=N)n(Cc3ccccc3)c3ccccc32)cc1 (stereo not drawn)
4. O=C(COc1ccccc1)NC1=NCCS1
5. CCOc1ccc2nc(N3C(=O)/C(=C/c4ccccc4)NC3=S)sc2c1
6. CCOc1ccc2cc(C(=O)c3ccccc3)c(=O)oc2c1
7. CN(C)C(=O)COc1ccc2cc(-c3ccccc3)c(=O)oc2c1

[17.1, -0.21, 4.01, -0.0489, 3.66, -0.201, 2.32]

Provide the reported z-score of each entry below, same order.
1. N=c1n(Cc2ccccc2)c2ccccc2n1CC(O)COc1ccccc1 (stereo not drawn)
2. Cc1nc(N)nc(OCC(F)(F)C(F)F)c1Br
3. CCOc1ccc2nc(SCC(=O)c3ccccc3)sc2c1
4. CC(NC(=O)c1ccccc1)C(=O)NC1=NCCS1 (stereo not drawn)
5. Cc1ccc(OCC(O)Cn2c3ccccc3c3ccccc32)cc1 (stereo not drawn)
6. OC(COc1ccccc1)Cn1c2ccccc2c2ccccc21 (stereo not drawn)
7. COc1ccccc1Nc1nnc(SCC(=O)NC(=O)Nc2ccc3c(c2)OCCO3)s1

0.257
-0.145
0.303
0.0634
-0.222
-0.0732
-0.138
